measured.on: Luciferin 4-monooxygenase (Photinus pyralis) (UniProt P08659)
Sequence (P08659 whole entry, looked up): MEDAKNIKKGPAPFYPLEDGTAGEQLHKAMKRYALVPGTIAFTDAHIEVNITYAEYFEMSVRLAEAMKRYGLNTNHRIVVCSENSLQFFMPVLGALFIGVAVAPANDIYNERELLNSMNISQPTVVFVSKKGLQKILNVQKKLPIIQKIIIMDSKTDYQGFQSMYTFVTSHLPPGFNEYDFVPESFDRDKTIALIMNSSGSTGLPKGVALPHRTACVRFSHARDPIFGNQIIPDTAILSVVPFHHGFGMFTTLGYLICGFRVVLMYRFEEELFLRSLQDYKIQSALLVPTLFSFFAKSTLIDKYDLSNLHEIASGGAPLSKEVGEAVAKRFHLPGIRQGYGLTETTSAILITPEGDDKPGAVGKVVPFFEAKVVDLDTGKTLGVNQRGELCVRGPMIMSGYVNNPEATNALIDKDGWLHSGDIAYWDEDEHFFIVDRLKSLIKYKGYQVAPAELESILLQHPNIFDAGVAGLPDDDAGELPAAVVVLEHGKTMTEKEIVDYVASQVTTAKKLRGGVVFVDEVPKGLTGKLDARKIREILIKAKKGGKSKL
method: inhibition of purified Photinus pyralis luciferase – biochemical, luminescence, purified enzyme, 2006 set, primary screen (AID 1141);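 also: cell-free assay with purified firefly luciferase at 100 ng per well in PBS; test concentration not given here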
measurement.parameters: purified firefly luciferase, SteadyGlo luminescence, 30 min, called active from +8 up or from −8 down
The source made the active and inactive calls.
Would you mind answering with one of these outcomes? 1.0 for active, 0.0 for inactive

C=C(COC)C(=O)CC[C@H](OC(=O)c1ccccc1-c1ccccc1C(=O)O)c1ccc(OCCO)cc1; 0.0
COCCCNC(=O)[C@@H]1c2ccccc2C(=O)N(c2ccc(C)cn2)[C@H]1c1ccc(CO)cc1; 0.0
CCOC(=O)C[C@H]1[C@H](OC(=O)Cc2ccc3c(c2)OCO3)[C@@H](NC(=O)c2ccccc2)c2cc(OCCCO)ccc2N1C(=O)c1ccc2ccccc2n1; 0.0
C=C[C@H](C)[C@H](OC(=O)Nc1ccc(SC)cc1)c1ccc(O)c2ccccc12; 0.0
O=C1O[C@H](c2ccccc2)[C@H](c2ccccc2)N2[C@H]1[C@@H](C(=O)N1CCCCCCC1)[C@]1(C(=O)Nc3ccccc31)[C@H]2c1ccc(O)cc1; 0.0
[N-]=[N+]=Nc1ccccc1[C@@H]1OC(c2ccc(OCCCO)cc2)=N[C@]1(CCS(=O)(=O)c1ccccc1)C(=O)NCc1ccccc1; 1.0

Next item in the queue.
-- ask Assay result, entry "OCc1ccc(-c2cc[n+](Cc3cccc(OC(F)(F)F)c3)cc2)cc1" — outcome?
-- reply 0.0

meta.source: PubChem BioAssay
